- Tested on: rats
- Assay Text: Rat gastric emptying of a test meal
- Assay type: in vivo, Male Charles River Rats, Crl: COBS, CD (SD) BR Strain
- Protocol Conditions: 10.0 mg/kg ip, 30 min before test meal, 60 min after meal
Where a name gives a salt, the structure may show the parent alone.
Measure: % INCREASE IN GASTRIC EMPTYING (%)
Please reply with the bare figure in % and do not write the unit itself.

[[record]]
compound = "COc1cc(N)c(Cl)cc1C(=O)NC[C@@H]1CCN2CCC[C@@H]12 (relative stereo) [Example 5, dihydrochloride]"
experimental_result = 15.8

[[record]]
compound = "CCN(CC)CCNC(=O)c1cc(Cl)c(N)cc1OC [Metoclopramide, metoclopramide]"
experimental_result = 34.1

[[record]]
compound = "COc1cc(N)c(Cl)cc1C(=O)NC[C@H]1CCN2CCC[C@@H]12 (relative stereo) [Example 7, dihydrochloride]"
experimental_result = -6.9


Noted % INCREASE IN GASTRIC EMPTYING for COc1cc(N)c(Cl)cc1C(=O)NC1CCN(CCCOc2ccc(F)cc2)CC1OC (stereo not shown) [Cisapride, cisapride] , tested on rats: 25.0

---

Reported % INCREASE IN GASTRIC EMPTYING is given for each of the following compounds.
- Test system: rats
- Assay Text: Rat gastric emptying of a test meal
- Format: in vivo, Male Charles River Rats, Crl: COBS, CD (SD) BR Strain
- Protocol Conditions: 3.0 mg/kg ip, 30 min before test meal, 60 min after meal
Structures can show the parent of a compound that is named as a salt.
Please reply with the bare figure in % and do not write the unit itself.

[[record]]
compound = "COc1cc(N)c(Cl)cc1C(=O)NC[C@H]1CCN2CCC[C@@H]12 (relative stereo) [Example 7, dihydrochloride]"
unit_name = "%"
experimental_result = 0.9

[[record]]
compound = "COc1cc(N)c(Cl)cc1C(=O)NC[C@@H]1CCN2CCC[C@@H]12 (relative stereo) [Example 5, dihydrochloride]"
unit_name = "%"
experimental_result = 9.4

[[record]]
compound = "COc1cc(N)c(Cl)cc1C(=O)NC1CCN(CCCOc2ccc(F)cc2)CC1OC (stereo not shown) [Cisapride, cisapride]"
unit_name = "%"
experimental_result = 15.4


Read the next record carefully.
Record summary for CCN(CC)CCNC(=O)c1cc(Cl)c(N)cc1OC [Metoclopramide, metoclopramide] : reported % INCREASE IN GASTRIC EMPTYING = 11.2
